# TEST_SYSTEM: UniProt P97612
# EXPERIMENT_NOTES: Assay Method 2: FAAH assay, 3H-anandamide hydrolysis in homogenate of SK-N-MC cells transfected with rat FAAH
# CONDITION: average of results, > = solubility limit or highest concentration tested
pIC50: −log10 of the molar value. Where a name gives a salt, the structure may show the parent alone.
OBSERVED_PROPERTY: pIC50

Example molecules with recorded pIC50:
**Q:** // returns reported pIC50 for input `O=C(Nc1noc2ccccc12)N1CCN(Cc2cccc(C#CC3CCCCC3)c2)CC1`
**A:** 7.34

**Q:** // returns reported pIC50 for input O=C(Nc1noc2ccccc12)N1CCN(Cc2ccc3c(c2)OC(F)(F)O3)CC1 [Example 1, trifluoroacetic acid salt]
**A:** 6.47

**Q:** // returns reported pIC50 for input `O=C(Nc1cnccn1)N1CCN(Cc2cccc(Oc3cccc(OC(F)(F)F)c3)c2)CC1`
**A:** 7.30

**Q:** // returns reported pIC50 for input `O=C(Nc1ccc2[nH]nnc2c1)N1CCC(Cc2ccc3ccccc3c2)CC1`
**A:** 8.30

**Q:** // returns reported pIC50 for input `O=C(Nc1noc2ccccc12)N1CCN(Cc2cccc(Oc3ccc4c(c3)OC(F)(F)O4)c2)CC1`
**A:** 8.40

P = O=C(Nc1noc2ccccc12)N1CCN(Cc2ccc3c(c2)OCO3)CC1
Q = O=C(Nc1noc2ccccc12)N1CCN(Cc2ccc3ccccc3n2)CC1
**Q:** Which value of pIC50 is smaller, the one for P or the one for Q ? Write the label of whichever entry you select.
**A:** P
(P: 6.12, Q: 6.70)

* * *

# TEST_SYSTEM: FAAH (Homo sapiens)
# Sequence (O00519 whole entry): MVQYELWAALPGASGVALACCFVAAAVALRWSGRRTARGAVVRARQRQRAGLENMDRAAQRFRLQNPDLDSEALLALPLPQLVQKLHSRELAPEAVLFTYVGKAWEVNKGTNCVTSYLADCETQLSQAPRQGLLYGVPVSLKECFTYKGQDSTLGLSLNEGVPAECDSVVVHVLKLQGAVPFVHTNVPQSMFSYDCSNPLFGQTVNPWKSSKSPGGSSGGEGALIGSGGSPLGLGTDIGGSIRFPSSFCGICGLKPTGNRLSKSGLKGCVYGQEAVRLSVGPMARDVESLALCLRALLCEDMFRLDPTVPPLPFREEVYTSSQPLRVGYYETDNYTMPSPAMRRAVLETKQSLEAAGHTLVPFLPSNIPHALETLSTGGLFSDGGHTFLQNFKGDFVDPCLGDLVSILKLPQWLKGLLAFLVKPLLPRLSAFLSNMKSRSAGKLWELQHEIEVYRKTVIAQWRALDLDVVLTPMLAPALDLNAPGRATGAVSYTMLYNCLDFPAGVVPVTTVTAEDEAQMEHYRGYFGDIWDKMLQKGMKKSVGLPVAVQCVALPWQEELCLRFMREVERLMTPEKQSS
# EXPERIMENT_NOTES: Assay Method 1: FAAH assay, 3H-anandamide hydrolysis in homogenate of T84 cells or SK-N-MC cells transfected with human FAAH
# CONDITION: average of results, > = solubility limit or highest concentration tested
# Description: A. Transfection of Cells with Human FAAH A 10-cm tissue culture dish with a confluent monolayer of SK—N-MC cells was split 2 days (d) prior to transfection. Using sterile technique, the media was removed and the cells were detached from the dish by the addition of trypsin. One fifth of the cells were then placed onto a new 10-cm dish. […] After 10 d, dishes were analyzed for surviving colonies of cells. […]
Where a name gives a salt, the structure may show the parent alone.
OBSERVED_PROPERTY: IC50 (µM)

Example compounds with recorded IC50:
**Q:** Give the reported IC50 for `O=C(Nc1noc2ccccc12)N1CCN(Cc2ccc(Br)c(Br)c2)CC1` (system: FAAH (Homo sapiens)).
**A:** 0.017

**Q:** Give the reported IC50 for `O=C(Nc1noc2ccccc12)N1CCN(Cc2cccc(Oc3ccc(C(F)(F)F)cc3)c2)CC1` (system: FAAH (Homo sapiens)).
**A:** 0.006

**Q:** Give the reported IC50 for `N#Cc1ccc(Oc2cccc(CN3CCN(C(=O)Nc4nn[nH]n4)CC3)c2)cc1` (system: FAAH (Homo sapiens)).
**A:** 1.6

a = O=C(Nc1noc2ccccc12)N1CCN(Cc2ccc(Br)cc2)CC1
b = O=C(Nc1cccc2nsnc12)N1CCN(Cc2cccc(OC(F)(F)F)c2)CC1 [Example 41, trifluoroacetic acid salt]
c = O=C(Nc1noc2ccccc12)N1CCN(Cc2cccc(Oc3ccc(SC(F)(F)F)cc3)c2)CC1
d = O=C(Nc1cccc2nonc12)N1CCN(Cc2cccc(C#Cc3ccccc3)c2)CC1
**Q:** # rank by IC50, ascending (min first) Form field (ranking): labels in requested order.
**A:** c, b, a, d

* * *

# TEST_SYSTEM: rat FAAH (Rattus norvegicus, UniProt P97612)
# Sequence (P97612 whole entry): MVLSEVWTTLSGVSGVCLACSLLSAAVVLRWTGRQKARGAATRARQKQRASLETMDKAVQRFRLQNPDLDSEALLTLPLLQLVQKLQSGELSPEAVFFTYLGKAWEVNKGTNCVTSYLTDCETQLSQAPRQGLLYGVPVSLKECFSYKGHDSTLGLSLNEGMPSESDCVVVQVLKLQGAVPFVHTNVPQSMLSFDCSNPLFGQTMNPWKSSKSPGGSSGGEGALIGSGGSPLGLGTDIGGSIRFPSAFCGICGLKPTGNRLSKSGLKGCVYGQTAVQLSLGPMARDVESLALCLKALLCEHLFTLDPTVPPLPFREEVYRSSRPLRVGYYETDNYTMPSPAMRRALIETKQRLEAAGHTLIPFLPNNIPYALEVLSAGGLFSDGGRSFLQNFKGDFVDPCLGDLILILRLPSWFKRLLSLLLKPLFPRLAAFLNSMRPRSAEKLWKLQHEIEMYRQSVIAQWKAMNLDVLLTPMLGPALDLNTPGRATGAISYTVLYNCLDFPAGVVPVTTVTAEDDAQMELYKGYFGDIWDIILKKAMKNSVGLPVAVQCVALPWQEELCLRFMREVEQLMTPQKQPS
# EXPERIMENT_NOTES: Assay Method 2: FAAH assay, 3H-anandamide hydrolysis in homogenate of SK-N-MC cells transfected with rat FAAH
# CONDITION: average of results, > = solubility limit or highest concentration tested
pIC50: −log10 of the molar value.
OBSERVED_PROPERTY: pIC50

**Q:** // returns reported pIC50 for input `O=C(Nc1cnccn1)N1CCN(Cc2ccc(Cl)c(Cl)c2)CC1`
**A:** 6.37

I = O=C(Nc1ccon1)N1CCN(Cc2cccc(Oc3ccc(OCC(F)(F)F)cc3)c2)CC1
II = Cc1cc(NC(=O)N2CCN(Cc3cccc(Oc4ccc(Cl)cc4)c3)CC2)n[nH]1
III = O=C(Nc1noc2ccccc12)N1CCN(Cc2cccc(C#Cc3ccccc3)c2)CC1
IV = O=C(Nc1nn[nH]n1)N1CCN(Cc2cccc(Oc3ccccc3)c2)CC1
**Q:** // sort entries: pIC50, high to low Form field (ranking): labels in requested order.
**A:** III, I, IV, II
(III: 6.94, I: 6.44, IV: 5.80, II: 5.40)

* * *

# TEST_SYSTEM: UniProt:O00519
# EXPERIMENT_NOTES: Assay Method 1: FAAH assay, 3H-anandamide hydrolysis in homogenate of T84 cells or SK-N-MC cells transfected with human FAAH
# CONDITION: average of results, > = solubility limit or highest concentration tested
# Experimental: A. Transfection of Cells with Human FAAH A 10-cm tissue culture dish with a confluent monolayer of SK—N-MC cells was split 2 days (d) prior to transfection. Using sterile technique, the media was removed and the cells were detached from the dish by the addition of trypsin. One fifth of the cells were then placed onto a new 10-cm dish. […] After 10 d, dishes were analyzed for surviving colonies of cells. […]
Where a name gives a salt, the structure may show the parent alone.
OBSERVED_PROPERTY: IC50 (nM)

Example compounds with recorded IC50:
**Q:** Give the reported IC50 for O=C(Nc1nn[nH]n1)N1CCN(Cc2cccc(Oc3ccc(F)c(C(F)(F)F)c3)c2)CC1 [Example 185] (system: UniProt:O00519).
**A:** 450

**Q:** Give the reported IC50 for O=C(Nc1cnccn1)N1CCN(Cc2cccc(Oc3ccc(Cl)c(Cl)c3)c2)CC1 [Example 59, trifluoroacetic acid salt] (system: UniProt:O00519).
**A:** 270

**Q:** Give the reported IC50 for O=C(Nc1ccc(Cl)nn1)N1CCC(Cc2cccc(C(F)(F)F)c2)CC1 [Example 25] (system: UniProt:O00519).
**A:** 1300

1 = O=C(Nc1nn[nH]n1)N1CCN(Cc2ccc(Br)cc2)CC1 [Example 177]
2 = O=C(Nc1noc2ccccc12)N1CCC(Cc2ccc(F)cc2)CC1 [Example 22]
**Q:** Which value of IC50 is smaller, the one for 1 or the one for 2 ? Write the label of whichever entry you select.
**A:** 2
(2: 108 nM, 1: 5000 nM)

* * *

# TEST_SYSTEM: rat FAAH (Rattus norvegicus, UniProt P97612)
# EXPERIMENT_NOTES: Assay Method 2: FAAH assay, 3H-anandamide hydrolysis in homogenate of SK-N-MC cells transfected with rat FAAH
# CONDITION: average of results, > = solubility limit or highest concentration tested
Counter-ions that a name gives are not always drawn.
OBSERVED_PROPERTY: IC50 (µM)

Example molecules with recorded IC50:
**Q:** // returns reported IC50 for input `O=C(Nc1noc2ccccc12)N1CCN(Cc2cccc(C#Cc3cccc(Cl)c3Cl)c2)CC1`
**A:** 0.815

**Q:** // returns reported IC50 for input `O=C(Nc1cnccn1)N1CCN(Cc2cccc(Oc3cccc(Cl)c3)c2)CC1`
**A:** 0.535

**Q:** // returns reported IC50 for input O=C(Nc1cnccn1)N1CCC(Cc2ccc3ccccc3c2)CC1 [Example 10, trifluoroacetic acid salt]
**A:** 0.036

**Q:** // returns reported IC50 for input `O=C(Nc1ccon1)N1CCN(Cc2cccc(Oc3ccc(OC(F)(F)F)cc3)c2)CC1`
**A:** 0.1

**Q:** // returns reported IC50 for input `O=C(Nc1ccon1)N1CCN(Cc2ccc3ccccc3c2)CC1`
**A:** 3

**Q:** // returns reported IC50 for input `O=C(Nc1ccon1)N1CCN(Cc2cccc(Oc3cccc(Cl)c3)c2)CC1`
**A:** 1

A = O=C(Nc1noc2ccccc12)N1CCN(Cc2cccc(Oc3cccc(Br)c3)c2)CC1 [Example 31, trifluoroacetic acid salt]
B = O=C(Nc1cccs1)N1CCN(Cc2ccc3c(c2)OC(F)(F)O3)CC1
**Q:** Which value of IC50 is smaller, the one for A or the one for B ? Write the label of whichever entry you select.
**A:** A
(A: 0.017 µM, B: 2.4 µM)

a = O=C(Nc1noc2ccccc12)N1CCN(Cc2cccc(Oc3ccc(S(=O)(=O)C(F)(F)F)cc3)c2)CC1
b = O=C(Nc1cnccn1)N1CCN(Cc2cc3ccccc3s2)CC1
c = O=C(Nc1nn[nH]n1)N1CCN(Cc2cc3ccccc3s2)CC1
**Q:** // sort entries: IC50, high to low Form field (ranking): labels in requested order.
**A:** b, c, a

1 = O=C(Nc1noc2ccccc12)N1CCN(Cc2cccc(C#CC3CC3)c2)CC1
2 = O=C(Nc1ccon1)N1CCN(Cc2cccc(Oc3ccc(Cl)c(Cl)c3)c2)CC1 [Example 47, trifluoroacetic acid salt]
3 = O=C(Nc1cnccn1)N1CCN(Cc2cccc(Oc3cccc(C(F)(F)F)c3)c2)CC1 [Example 60, trifluoroacetic acid salt]
**Q:** # rank by IC50, ascending (min first) Form field (ranking): labels in requested order.
**A:** 3, 2, 1

1 = O=C(Nc1noc2ccccc12)N1CCC(Cc2ccc(F)cc2)CC1
2 = O=C(Nc1nn[nH]n1)N1CCN(Cc2ccc(Cl)c(Cl)c2)CC1
3 = O=C(Nc1noc2ccccc12)N1CCN(Cc2cccc(Oc3ccc(F)c(F)c3)c2)CC1
4 = O=C(Nc1noc2ccccc12)N1CCN(Cc2cccc(Oc3ccc(Cl)c(C(F)(F)F)c3)c2)CC1 [Example 205, trifluoroacetic acid salt]
**Q:** // sort entries: IC50, high to low Form field (ranking): labels in requested order.
**A:** 2, 4, 1, 3
(2: 0.34 µM, 4: 0.225 µM, 1: 0.077 µM, 3: 0.03 µM)

a = O=C(Nc1noc2ccccc12)N1CCN(Cc2cccc(C#Cc3ccccc3C(F)(F)F)c2)CC1
b = O=C(Nc1cccc2nonc12)N1CCC(Cc2ccc3ccccc3c2)CC1
c = N#CCc1ccccc1C#Cc1cccc(CN2CCN(C(=O)Nc3noc4ccccc34)CC2)c1
**Q:** # rank by IC50, ascending (min first) Form field (ranking): labels in requested order.
**A:** b, a, c
(b: 0.023 µM, a: 0.08 µM, c: 0.262 µM)

P = O=C(Nc1cnccn1)N1CCN(Cc2cccc(Oc3ccc(Cl)cc3)c2)CC1 [Example 58, trifluoroacetic acid salt]
Q = O=C(Nc1cnccn1)N1CCN(Cc2cccc(Oc3ccc4c(c3)OC(F)(F)O4)c2)CC1
R = O=C(Nc1cnccn1)N1CCN(Cc2ccc3ccccc3n2)CC1
S = O=C(Nc1noc2ccccc12)N1CCN(Cc2cccc(C#Cc3cc(Cl)cc(Cl)c3)c2)CC1
T = CCCCc1ccc(Oc2cccc(CN3CCN(C(=O)Nc4noc5ccccc45)CC3)c2)cc1
**Q:** // sort entries: IC50, high to low Form field (ranking): labels in requested order.
**A:** R, Q, S, P, T

P = O=C(Nc1noc2ccccc12)N1CCN(Cc2ccc(Cl)c(Cl)c2)CC1
Q = O=C(Nc1cnccn1)N1CCN(Cc2cccc(Oc3ccc4ncccc4c3)c2)CC1
**Q:** Consider P and Q . Which of these has its IC50 at a higher number? Write the label of whichever entry you select.
**A:** Q
(Q: 0.24 µM, P: 0.04 µM)
